Source of measurements: the Immune Epitope Database (IEDB)

Could you please report measured pKd for the items listed next?
- Measured on: HLA-A*24:02
- Assay: IEDB peptide-MHC binding, purified MHC/direct/fluorescence; filed as Kd, often an IC50 or EC50 that approximates it; bounds were set here for any values at or beyond the usual limits of such assays
- Condition context: source organism: Francisella tularensis subsp. tularensis SCHU S4
Numbers only, as −log10 of the molar value.

Use these answered entries as a reference point.
Chain: TYPNSQQQTL
pKd: 6.74

Chain: LYQPLLDLL
pKd: 7.52

Chain: PYLKSFLSF
pKd: 7.70

Chain: AYVKNGYFEI
pKd: 7.12

Chain: SYTFTQTFF
pKd: 7.62

Chain: TYTSTLHPRL
pKd: 6.70

Chain: NYQKWTAPL
pKd: 8.30

Chain: NYNNLDDKF
pKd: 8.52

Chain: KYWNNHRQGI
pKd: 6.36

Chain: SYSYLVYLI
pKd: 8.52

Batch: pKd for all items listed.
1. PYLKQGIEF
2. YYLDRGYLDF
3. IYSDKGLLF
4. NYVDSAQLAF
5. IFWQFHQLL

1: 8.10; 2: 8.00; 3: 8.40; 4: 8.05; 5: 8.00

###

- Measured on: HLA-B*07:02
- Assay: IEDB peptide-MHC binding, purified MHC/direct/fluorescence; filed as Kd, often an IC50 or EC50 that approximates it; bounds were set here for any values at or beyond the usual limits of such assays
- Condition context: source organism: Francisella tularensis
Assay readout: Kd (nM)
One number for each entry, in nM.

Per the reported HLA-B*07:02 data, APFANTYSAL has Kd of 22

###

Can you tell me Kd for the items I'm about to list?
- Measured on: HLA-B*07:02
- Assay: IEDB peptide-MHC binding, purified MHC/competitive/fluorescence; filed as Kd, often an IC50 or EC50 that approximates it; bounds were set here for any values at or beyond the usual limits of such assays
- Condition context: source organism: Francisella tularensis subsp. tularensis SCHU S4

The following sequences have reported results that may help.
Chain: FPQANLTGGI
Kd: 2.15 µM
--
Chain: FPNINFSPEV
Kd: ≥ 5 µM

Short answer for APAWFQASA : Kd was ≥ 5 µM

###

- Measured on: HLA-A*02:01
- Assay: IEDB peptide-MHC binding, purified MHC/direct/fluorescence; filed as Kd, often an IC50 or EC50 that approximates it; bounds were set here for any values at or beyond the usual limits of such assays
- Condition context: source organism: Francisella tularensis subsp. tularensis SCHU S4
Assay readout: Kd

Solved entries (count: 5):
Chain: IMSSFEFQV
Kd: ≤ 1 nM
--
Chain: LMWDNVGLV
Kd: ≤ 1 nM
--
Chain: RLIGHISTL
Kd: ≤ 1 nM
--
Chain: QLWPEEIGV
Kd: ≤ 1 nM
--
Chain: ILDPKTGLV
Kd: 15 nM

The following sequences each have a reported value; give each one's Kd.
1. KLLGQINLV
2. KLAKKVLSRV
3. GLNLVVSSSV
4. KLLPEGYWV

≤ 1 nM
10 nM
20 nM
≤ 1 nM

###

What log10(Kd) was measured for each of the following?
- Measured on: HLA-B*07:02
- Assay: IEDB peptide-MHC binding, purified MHC/direct/fluorescence; filed as Kd, often an IC50 or EC50 that approximates it; bounds were set here for any values at or beyond the usual limits of such assays
- Condition context: source organism: Francisella tularensis subsp. tularensis SCHU S4
Friendly reminder: values = log10 of Kd, unit nM.

Some solved entries appear below for comparison.
Chain: SPQANNLYL
log10(Kd): 1.87
//
Chain: FPICSTYKFL
log10(Kd): 2.35
//
Chain: MPVSRQISRM
log10(Kd): 2.82
//
Chain: SPMGPLAVSF
log10(Kd): 1.26
//
Chain: LPRYNIATSV
log10(Kd): 0.48
//
Chain: TPNGNIPTL
log10(Kd): 1.66

Could you report log10(Kd) for every entry in the following list?
1. IPRTMLPLSL
2. FPKAFINIV
3. VPRKPLLSYI
4. APYPNVVEM
5. FPICSVFKFL
6. APAFVVIADL
7. FPINLNSSQL

1. 0.48
2. 2.18
3. 1.58
4. 2.10
5. 2.40
6. 2.06
7. 1.79

###

- Measured on: HLA-A*02:01
- Assay: IEDB peptide-MHC binding, purified MHC/direct/fluorescence; filed as Kd, often an IC50 or EC50 that approximates it; bounds were set here for any values at or beyond the usual limits of such assays
- Condition context: source organism: Francisella tularensis
Assay readout: Kd (nM)
One number for each entry, in nM.

The value of Kd recorded for QLVGRVFAGL when tested on HLA-A*02:01 reads 2

###

- Measured on: HLA-A*24:02
- Assay: IEDB peptide-MHC binding, purified MHC/direct/fluorescence; filed as Kd, often an IC50 or EC50 that approximates it; bounds were set here for any values at or beyond the usual limits of such assays
- Condition context: source organism: Francisella tularensis subsp. tularensis SCHU S4
Kindly supply the reported pKd values for the records listed here.
Numbers only, as −log10 of the molar value.

Chain: IYNNYDVLF
pKd: 7.64

Chain: WYTNLDTDKF
pKd: 6.59

Chain: LYSENGHFSW
pKd: 7.74

Chain: RYTDSEYFVI
pKd: 7.82

// switching to the query sequence
Entry SYDRWGIPI , tested on HLA-A*24:02, has a reported pKd of 7.48

###

- Measured on: HLA-A*02:01
- Assay: IEDB peptide-MHC binding, purified MHC/direct/fluorescence; filed as Kd, often an IC50 or EC50 that approximates it; bounds were set here for any values at or beyond the usual limits of such assays
- Condition context: source organism: Francisella tularensis subsp. tularensis SCHU S4
pKd: −log10 of the molar value.
Assay readout: pKd

Here is how some sequences turned out for pKd.
Chain: KLWGLVDFV
Result: ≥ 9.00

Chain: ILLPWFVDL
Result: ≥ 9.00

Chain: FLSPNQVTNV
Result: ≥ 9.00

Chain: GIDGNVTFTV
Result: ≥ 9.00

Chain: NLDTSPFFV
Result: ≥ 9.00

Chain: FLSNVGHYV
Result: ≥ 9.00

Chain: KLGGYVSFV
Result: ≥ 9.00

Chain: WLGETFHGL
Result: ≥ 9.00

List the reported pKd of each sequence below.
1. VLPGVVVPIV
2. WLGNHGFEV
3. GTDGFPFKL
4. FLMPFMHYIV
5. KIDSTSFSV

[7.82, "≥ 9.00", 7.62, "≥ 9.00", "≥ 9.00"]

###

- Measured on: HLA-B*07:02
- Assay: IEDB peptide-MHC binding, purified MHC/direct/fluorescence; filed as Kd, often an IC50 or EC50 that approximates it; bounds were set here for any values at or beyond the usual limits of such assays
- Condition context: source organism: Francisella tularensis subsp. tularensis SCHU S4
Assay readout: Kd (nM)
Give bare numbers, in nM.

Chain: SPMEHSKRI
Measured on: HLA-B*07:02
Numeric result: 62
--
Chain: IPMTLTASPL
Measured on: HLA-B*07:02
Numeric result: 4

Attention now shifts to the item below.
The measured Kd associated with FPATGQNIYM reads 588
